- procedure-summary: Dog liver, bile, plasma distribution
- Type: in vivo
- assay-conditions: Beagle, dog, hepatic portal vein plasma, po, 100 mg/kg, Mean; 4 hours after single daily 100 mg/kg oral doses for four days; read-out: Concentration in Hepatic Portal Vein Plasma
- Excerpt: Tables 2A-2B show ^14C-MGL-3196 dog ADME study design.
parameter: concentration at 4 h (µg/mL)

CC(C)c1cc(Oc2c(Cl)cc(-n3nc(C#N)c(=O)[nH]c3=O)cc2Cl)n[nH]c1=O; 68

* * *

- procedure-summary: Dog liver, bile, plasma distribution
- Type: in vivo
- assay-conditions: Beagle, dog, hepatic portal vein plasma, po, 100 mg/kg, Dog 2; 4 hours after single daily 100 mg/kg oral doses for four days; read-out: Concentration in Hepatic Portal Vein Plasma
parameter: concentration at 4 h (µg/mL)

CC(C)c1cc(Oc2c(Cl)cc(-n3nc(C#N)c(=O)[nH]c3=O)cc2Cl)n[nH]c1=O; 86.6

* * *

- procedure-summary: Dog liver, bile, plasma distribution
- Assay type: in vivo
- assay-conditions: Beagle, dog, systemic plasma, po, 100 mg/kg, Dog 3; 4 hours after single daily 100 mg/kg oral doses for four days; read-out: Concentration in Systemic Plasma
parameter: concentration at 4 h (µg/mL)

CC(C)c1cc(Oc2c(Cl)cc(-n3nc(C#N)c(=O)[nH]c3=O)cc2Cl)n[nH]c1=O [MGL-3196]; 115

* * *

- measured-on: CYP2C9 (Homo sapiens, UniProt P11712)
- Sequence (P11712 whole entry): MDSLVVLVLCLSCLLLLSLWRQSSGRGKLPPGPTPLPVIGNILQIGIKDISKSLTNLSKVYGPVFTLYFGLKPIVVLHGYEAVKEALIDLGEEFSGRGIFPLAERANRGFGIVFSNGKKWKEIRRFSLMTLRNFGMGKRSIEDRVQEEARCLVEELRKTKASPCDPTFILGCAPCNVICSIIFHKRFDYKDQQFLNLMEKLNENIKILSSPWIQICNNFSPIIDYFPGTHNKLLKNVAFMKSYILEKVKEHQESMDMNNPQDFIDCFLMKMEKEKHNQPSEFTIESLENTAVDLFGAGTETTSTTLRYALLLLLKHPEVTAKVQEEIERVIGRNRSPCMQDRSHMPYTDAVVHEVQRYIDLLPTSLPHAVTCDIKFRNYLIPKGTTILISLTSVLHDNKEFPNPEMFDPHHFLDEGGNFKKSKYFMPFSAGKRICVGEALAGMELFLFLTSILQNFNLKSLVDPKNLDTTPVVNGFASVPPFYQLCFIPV
- procedure-summary: In vitro Cytochrome P-450 enzyme assay, CYP2C9
- Format: in vitro ADME
- assay-conditions: range given jointly for CYP2B6, CYP2C9, CYP2C19; weak; read-out: Inhibitor of: CYP2C9, IC50
pIC50: −log10 of the molar value.
parameter: pIC50

CC(CO)c1cc(Oc2c(Cl)cc(-n3nc(C#N)c(=O)[nH]c3=O)cc2Cl)n[nH]c1=O (stereo not shown) [MGL-3623]; 4.46 to 4.62

* * *

- procedure-summary: Dog liver, bile, plasma distribution
- Format: in vivo
- assay-conditions: Beagle, dog, hepatic portal vein plasma, po, 100 mg/kg, Dog 1; 4 hours after single daily 100 mg/kg oral doses for four days; read-out: Concentration in Hepatic Portal Vein Plasma
parameter: concentration at 4 h

CC(C)c1cc(Oc2c(Cl)cc(-n3nc(C#N)c(=O)[nH]c3=O)cc2Cl)n[nH]c1=O [MGL-3196]; 18800 ng/mL

* * *

- measured-on: BSEP (Homo sapiens)
- Sequence (O95342 whole entry, species assumed): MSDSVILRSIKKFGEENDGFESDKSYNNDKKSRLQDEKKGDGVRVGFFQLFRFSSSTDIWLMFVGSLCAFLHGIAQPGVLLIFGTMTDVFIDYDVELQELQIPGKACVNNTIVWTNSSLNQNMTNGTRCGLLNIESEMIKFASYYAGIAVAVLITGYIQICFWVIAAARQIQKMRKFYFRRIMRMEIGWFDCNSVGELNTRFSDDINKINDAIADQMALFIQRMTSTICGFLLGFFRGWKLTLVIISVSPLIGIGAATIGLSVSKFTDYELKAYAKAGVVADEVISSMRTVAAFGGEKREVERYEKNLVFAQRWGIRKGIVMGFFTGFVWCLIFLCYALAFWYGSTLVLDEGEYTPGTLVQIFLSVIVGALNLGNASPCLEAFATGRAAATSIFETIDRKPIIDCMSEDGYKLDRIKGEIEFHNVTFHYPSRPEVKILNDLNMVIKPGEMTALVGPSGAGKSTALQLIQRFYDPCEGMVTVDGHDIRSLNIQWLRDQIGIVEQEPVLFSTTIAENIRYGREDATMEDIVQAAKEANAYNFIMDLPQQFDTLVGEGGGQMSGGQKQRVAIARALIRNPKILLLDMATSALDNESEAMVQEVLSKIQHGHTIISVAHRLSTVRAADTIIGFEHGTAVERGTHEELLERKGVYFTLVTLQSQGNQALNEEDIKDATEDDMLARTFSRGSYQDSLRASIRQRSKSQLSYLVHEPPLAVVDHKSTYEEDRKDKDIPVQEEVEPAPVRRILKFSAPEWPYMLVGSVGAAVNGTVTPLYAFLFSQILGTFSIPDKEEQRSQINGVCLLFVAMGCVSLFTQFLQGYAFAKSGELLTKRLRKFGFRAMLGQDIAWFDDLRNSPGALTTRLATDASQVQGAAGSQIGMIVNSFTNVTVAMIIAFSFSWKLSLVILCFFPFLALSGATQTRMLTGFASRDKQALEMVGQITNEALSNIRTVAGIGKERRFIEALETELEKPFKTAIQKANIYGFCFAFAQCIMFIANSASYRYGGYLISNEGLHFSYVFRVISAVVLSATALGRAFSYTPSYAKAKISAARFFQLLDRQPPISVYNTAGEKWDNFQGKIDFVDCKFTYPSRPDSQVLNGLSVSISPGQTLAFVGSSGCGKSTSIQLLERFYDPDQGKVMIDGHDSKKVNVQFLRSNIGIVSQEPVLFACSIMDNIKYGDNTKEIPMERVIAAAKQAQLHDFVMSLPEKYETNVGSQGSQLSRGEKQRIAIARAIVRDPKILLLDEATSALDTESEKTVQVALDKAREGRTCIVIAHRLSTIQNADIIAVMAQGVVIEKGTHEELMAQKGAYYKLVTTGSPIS
parameter: IC50 (µM)

CC(C)c1cc(Oc2c(Cl)cc(-n3nc(C#N)c(=O)[nH]c3=O)cc2Cl)n[nH]c1=O [MGL-3196]; 34.7

* * *

- procedure-summary: Dog liver, bile, plasma distribution
- Type: in vivo
- assay-conditions: Beagle, dog, liver, po, 100 mg/kg, Dog 2; 4 hours after single daily 100 mg/kg oral doses for four days; read-out: Concentration in Liver
parameter: concentration at 4 h (ng/g)

CC(C)c1cc(Oc2c(Cl)cc(-n3nc(C#N)c(=O)[nH]c3=O)cc2Cl)n[nH]c1=O; 319000

* * *

- measured-on: OAT3 (Homo sapiens, UniProt Q8TCC7)
- Sequence (Q8TCC7 1-542): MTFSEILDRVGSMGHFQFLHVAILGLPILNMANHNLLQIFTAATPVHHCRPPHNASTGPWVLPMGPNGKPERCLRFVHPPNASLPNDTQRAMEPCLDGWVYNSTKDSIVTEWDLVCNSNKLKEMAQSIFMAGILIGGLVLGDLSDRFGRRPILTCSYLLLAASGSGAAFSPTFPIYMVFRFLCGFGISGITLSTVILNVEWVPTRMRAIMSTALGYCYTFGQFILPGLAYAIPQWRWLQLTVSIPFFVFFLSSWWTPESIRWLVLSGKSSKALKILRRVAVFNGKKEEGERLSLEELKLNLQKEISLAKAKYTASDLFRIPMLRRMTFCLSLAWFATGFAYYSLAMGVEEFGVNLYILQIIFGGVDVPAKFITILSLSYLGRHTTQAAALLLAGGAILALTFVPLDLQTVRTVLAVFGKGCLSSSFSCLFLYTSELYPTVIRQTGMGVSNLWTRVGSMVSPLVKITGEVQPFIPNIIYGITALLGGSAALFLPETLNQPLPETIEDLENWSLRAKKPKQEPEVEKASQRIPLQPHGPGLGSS
parameter: IC50 (µM)

CC(C)c1cc(Oc2c(Cl)cc(-n3nc(C#N)c(=O)[nH]c3=O)cc2Cl)n[nH]c1=O; 4.5
